Known inhibition at 10 µM of a selection of compounds
ASSAY TARGET: bradykinin receptor 1 (B1R) of the rat (Rattus norvegicus)
Construct: expressed in transfected cells; host or cells: CHO K1 cells
Sequence (P97583 1-337): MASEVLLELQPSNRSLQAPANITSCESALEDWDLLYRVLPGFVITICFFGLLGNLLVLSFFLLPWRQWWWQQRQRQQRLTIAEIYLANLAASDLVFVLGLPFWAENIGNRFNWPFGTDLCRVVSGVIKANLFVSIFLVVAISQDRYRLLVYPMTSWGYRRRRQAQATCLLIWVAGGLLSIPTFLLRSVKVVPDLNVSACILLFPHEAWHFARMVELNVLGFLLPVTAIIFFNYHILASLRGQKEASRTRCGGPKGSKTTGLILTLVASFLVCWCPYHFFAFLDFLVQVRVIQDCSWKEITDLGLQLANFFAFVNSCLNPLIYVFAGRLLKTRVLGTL
PROTOCOL DETAILS: Functional study on the bradykinin receptor 1 (B1R), rat: FLIPR Ca2+ influx assay
Format: cell-based
CONDITION CONTEXT: test substance 10 μM; CHO K1 cells transfected with rat B1R; Des-Arg9-bradykinin at EC80; Ca2+ influx (Fluo-4, FLIPR); read-out: B1R antagonism, rat [10 μM] % inhibition
Numeric only. Scale: %

Solved entries:
COMPOUND	ASSAY TARGET	OBSERVED PROPERTY	READOUT UNITS	NUMBER
CN1CCN(C(c2ccccc2)C2CCN(C(=O)CC3CCCCN3S(=O)(=O)c3cccc(C(F)(F)F)c3)CC2)CC1 (stereo not shown) [Example 108]	bradykinin receptor 1 (B1R) of the rat (Rattus norvegicus)	inhibition at 10 µM	%	78
O=C1Nc2ccccc2N(S(=O)(=O)c2ccc(Cl)c(Cl)c2)C1CC(=O)N1CCC(C(Cc2ccccc2)N2CCOCC2)CC1 (stereo not shown) [Example 72]	bradykinin receptor 1 (B1R) of the rat (Rattus norvegicus)	inhibition at 10 µM	%	30
CN(C)C(c1ccccc1)C1CCC(CNC(=O)CC2c3ccccc3CCN2S(=O)(=O)c2ccc(Cl)c(Cl)c2)CC1 (stereo not shown) [Example 29]	bradykinin receptor 1 (B1R) of the rat (Rattus norvegicus)	inhibition at 10 µM	%	45
CN(C)C(c1ccc(F)cc1)C1CCC(CNC(=O)c2ccccc2N(C)S(=O)(=O)c2ccc(Cl)c(Cl)c2)CC1 (stereo not shown) [Example 40]	bradykinin receptor 1 (B1R) of the rat (Rattus norvegicus)	inhibition at 10 µM	%	20
O=C(CC1C(=O)Nc2ccccc2N1S(=O)(=O)c1ccc(Cl)c(Cl)c1)NCC1CCC(C(CCc2ccccc2)N2CCOCC2)CC1 (stereo not shown) [Example 65]	bradykinin receptor 1 (B1R) of the rat (Rattus norvegicus)	inhibition at 10 µM	%	24
COc1ccc(S(=O)(=O)N2CCc3ccccc3C2CC(=O)NC2CCC(C(c3ccccc3)N(C)C)CC2)cc1 (stereo not shown) [Example 9]	bradykinin receptor 1 (B1R) of the rat (Rattus norvegicus)	inhibition at 10 µM	%	0

Now take the following compound into account.
Could you share what inhibition at 10 µM was measured for COc1ccc(S(=O)(=O)N2CCc3ccccc3C2CC(=O)NCC2CCC(C(c3cccc(F)c3)N(C)C)CC2)cc1 (stereo not shown) [Example 16] , tested on bradykinin receptor 1 (B1R) of the rat (Rattus norvegicus)?
57

====

ASSAY TARGET: human bradykinin receptor 1 (B1R) (Homo sapiens)
Construct: expressed in transfected cells; host or cells: CHO K1 cells
Sequence (P46663 whole entry): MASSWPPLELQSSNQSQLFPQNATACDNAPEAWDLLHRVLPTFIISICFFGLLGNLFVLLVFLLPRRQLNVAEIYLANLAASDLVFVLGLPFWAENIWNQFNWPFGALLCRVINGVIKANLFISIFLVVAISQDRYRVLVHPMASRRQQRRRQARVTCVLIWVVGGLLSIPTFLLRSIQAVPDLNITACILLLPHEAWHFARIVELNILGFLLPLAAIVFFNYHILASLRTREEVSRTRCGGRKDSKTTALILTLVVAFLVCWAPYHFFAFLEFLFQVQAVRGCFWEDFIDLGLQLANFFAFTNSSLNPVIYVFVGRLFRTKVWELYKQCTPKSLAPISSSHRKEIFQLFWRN
PROTOCOL DETAILS: Functional study on the bradykinin receptor 1 (B1R), human: FLIPR Ca2+ influx assay
Format: cell-based
CONDITION CONTEXT: test substance 10 μM; CHO K1 cells transfected with human B1R; Lys-Des-Arg9-bradykinin at EC80; Ca2+ influx (Fluo-4, FLIPR); read-out: B1R antagonism, human [10 μM] % inhibition
Known inhibition at 10 µM of a selection of molecules
Numeric only. Scale: %

Solved entries:
MOLECULE	inhibition at 10 µM (%)
O=C(CC1C(=O)NCCN1S(=O)(=O)c1ccc(Cl)cc1Cl)NC1CCC(C(c2ccccc2)N2CCOCC2)CC1 (centres unmarked)	104
CN(C)C(c1ccc(F)cc1)C1CCC(NC(=O)c2ccccc2N(C)S(=O)(=O)c2ccc(Cl)c(Cl)c2)CC1 (centres unmarked)	82.2

inhibition at 10 µM lookup needed for CN(C)C(c1ccc(Cl)cc1)C1CCC(CCNC(=O)c2ccccc2N(C)S(=O)(=O)c2ccc(Cl)c(Cl)c2)CC1 (centres unmarked) , thanks.
28.9

inhibition at 10 µM lookup needed for O=C(CC1C(=O)NCCN1S(=O)(=O)c1ccc(Cl)cc1Cl)NC1CCC(C(CCc2ccccc2)N2CCCCC2)CC1 (centres unmarked) , thanks.
104

inhibition at 10 µM lookup needed for CN(C)C(c1ccc(F)cc1)C1CCC(CCNC(=O)CC2c3ccccc3CCN2S(=O)(=O)c2ccc(Cl)c(Cl)c2)CC1 (centres unmarked) , thanks.
79.5

inhibition at 10 µM lookup needed for O=C(CC1CCCCN1S(=O)(=O)c1ccc(Cl)c(Cl)c1)N1CCC(C(c2ccccc2)N2CCOCC2)CC1 (centres unmarked) , thanks.
16.4

inhibition at 10 µM lookup needed for COc1ccc(S(=O)(=O)N2CCc3ccccc3C2CC(=O)NCC2CCC(C(c3ccc(F)cc3)N(C)C)CC2)cc1 (centres unmarked) , thanks.
42.7

inhibition at 10 µM lookup needed for O=C1Nc2ccccc2N(S(=O)(=O)c2ccc(Cl)c(Cl)c2)C1CC(=O)N1CCC(C(c2ccccc2)N2CCOCC2)CC1 (centres unmarked) , thanks.
104

inhibition at 10 µM lookup needed for Cc1cc(S(=O)(=O)N2CCCCC2CCC(=O)N2CCC(C(CCc3ccccc3)N3CCN(C)CC3)CC2)c(C)cc1Cl (centres unmarked) , thanks.
102

inhibition at 10 µM lookup needed for COc1cc(C)c(S(=O)(=O)N(C)CCCNC(=O)NC2CCC(C(c3ccccc3)N(C)C)CC2)c(C)c1C (centres unmarked) , thanks.
71.5

inhibition at 10 µM lookup needed for CN1CCN(C(c2ccccc2)C2CCN(C(=O)CC3CCCCN3S(=O)(=O)c3cccc(C(F)(F)F)c3)CC2)CC1 (centres unmarked) , thanks.
97

inhibition at 10 µM lookup needed for O=C(CC1CCCN1S(=O)(=O)c1ccc(Cl)c(Cl)c1)NCC1CCC(C(c2ccccc2)N2CCOCC2)CC1 (centres unmarked) , thanks.
76.3

inhibition at 10 µM lookup needed for CN(C)C(c1cccc(F)c1)C1CCC(NC(=O)c2ccccc2N(C)S(=O)(=O)c2ccc(Cl)c(Cl)c2)CC1 (centres unmarked) , thanks.
64.1

inhibition at 10 µM lookup needed for COc1ccc(S(=O)(=O)N2CCc3ccccc3C2CC(=O)NC2CCC(C(c3ccccc3)N(C)C)CC2)cc1 (centres unmarked) , thanks.
105
